src = patent US20260365663A1

What IC50 was measured for each of the following?
- experimental system: EBP (Homo sapiens)
- Construct: HEK293T cells were utilized as the source of EBP enzyme; endogenous in cells; host or cells: HEK293T
- Sequence (Q15125 whole entry): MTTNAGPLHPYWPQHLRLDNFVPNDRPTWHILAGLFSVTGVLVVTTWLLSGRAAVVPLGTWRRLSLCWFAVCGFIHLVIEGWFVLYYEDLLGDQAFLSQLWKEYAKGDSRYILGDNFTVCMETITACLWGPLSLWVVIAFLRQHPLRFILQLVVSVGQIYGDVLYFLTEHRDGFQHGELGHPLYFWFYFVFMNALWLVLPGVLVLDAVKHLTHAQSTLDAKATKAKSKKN
- protocol details: EBP Functional Assay (EBP immunoaffinity LC-MS assay)
- Assay type: biochemical
- test parameters: HEK293T cells as source of EBP enzyme; zymosterol-d5 substrate; inhibitor 30 min, then 37 °C for 4 h; percent conversion to dehydrolathosterol-d5 by LC-APCI MRM MS; read-out: EBP Functional Assay

# annotated cases, reported IC50 shown
{"compound": "Cc1nc(C(F)(F)F)ccc1S(=O)(=O)N1CC2(CC[C@H](N3CCOCC3)C2)C1 (single isomer, unassigned) [Example 61]", "experimental system": "EBP (Homo sapiens)", "IC50": "100 to 500 nM"}
{"compound": "N#Cc1ccc(F)c(S(=O)(=O)N2CC3(CC(NC4CCC(F)(F)CC4)CO3)C2)c1 (centres unmarked) [Example 26]", "experimental system": "EBP (Homo sapiens)", "IC50": "500 to 3000 nM"}
{"compound": "Cc1nc(C(F)(F)F)ccc1S(=O)(=O)N1CC2(CC(NCC3(C)COC3)C2)C1 [Example 9]", "experimental system": "EBP (Homo sapiens)", "IC50": "< 100 nM"}
{"compound": "COCCN(C)C1CCC2(C1)CN(S(=O)(=O)c1ccc(OC)nc1C)C2 (centres unmarked) [Example 32]", "experimental system": "EBP (Homo sapiens)", "IC50": "< 100 nM"}

Hi there! I need IC50 for each item below, if you can.
1. Cc1cc(C(F)(F)F)ncc1S(=O)(=O)N1CC2(CC[C@@H](N3CCOCC3)C2)C1 (single isomer, unassigned) [Example 62]
2. Cc1nc(C(F)(F)F)ncc1S(=O)(=O)N1CC2(CC(NC3COC3)C2)C1 [Example 77]
3. COc1cc(S(=O)(=O)N2CC3(CCC(N4CCOCC4)C3)C2)n(C)n1 (centres unmarked) [Example 34]
4. Cc1cc(C)c(S(=O)(=O)N2CC3(CC(N4CCOCC4)CO3)C2)c(C)c1 (centres unmarked) [Example 53]

## Result
["< 100 nM", "500 to 3000 nM", "100 to 500 nM", "100 to 500 nM"]

###

- experimental system: EBP (Homo sapiens)
- Construct: HEK293T cells were utilized as the source of EBP enzyme; endogenous in cells; host or cells: HEK293T
- protocol details: EBP Functional Assay (EBP immunoaffinity LC-MS assay)
- Assay type: biochemical
- test parameters: HEK293T cells as source of EBP enzyme; zymosterol-d5 substrate; inhibitor 30 min, then 37 °C for 4 h; percent conversion to dehydrolathosterol-d5 by LC-APCI MRM MS; read-out: EBP Functional Assay
pIC50: −log10 of the molar value.
Exercise: for every item that follows, state its recorded pIC50.

Guide cases for pIC50, answers given:
{"compound": "Cc1nc(C(F)(F)F)ccc1S(=O)(=O)N1CC2(CC(NC3(C4CCOCC4)CC3)C2)C1 [Example 7]", "measured parameter": "pIC50", "assay result": "6.30 to 7.00"}
{"compound": "Cc1nc(C(F)(F)F)ncc1S(=O)(=O)N1CC2(CC(N(C)C3CC4(COC4)C3)C2)C1 (centres unmarked) [Example 82]", "measured parameter": "pIC50", "assay result": "> 7.00"}
{"compound": "N#Cc1cc(F)cc(S(=O)(=O)N2CC3(CC(N4CC5(COC5)C4)CO3)C2)c1 (centres unmarked) [Example 28]", "measured parameter": "pIC50", "assay result": "5.52 to 6.30"}
{"compound": "Cc1cnc(S(=O)(=O)N2CC3(CCC(N4CCOCC4)C3)C2)c(C)c1 (centres unmarked) [Example 29]", "measured parameter": "pIC50", "assay result": "5.52 to 6.30"}

// batch mode: one pIC50 value per listed entry
1. Cc1nc(C(C)(F)F)ccc1S(=O)(=O)N1CC2(CC(N(C)C3CC4(COC4)C3)C2)C1 (centres unmarked) [Example 74]
2. Cc1nc(C(F)(F)F)ccc1S(=O)(=O)N1CC2(CC(NC3COC3)C2)C1 [Example 8]

## Result
1. > 7.00
2. 5.52 to 6.30

Hi, could you look up pIC50 for each item in my list?
1. Cc1nc(C(C)(F)F)ccc1S(=O)(=O)N1CC2(CC(N(C)C3COC3)C2)C1 [Example 73]
2. Cn1nc(C(F)(F)F)cc1S(=O)(=O)N1CC2(C[C@@H](N3CCOCC3)CO2)C1 [Example 57]

## Result
1. 6.30 to 7.00
2. 5.52 to 6.30
